Data provenance: patent US10570179B2

# procedureDetails: Plasma stability assay
# Assay type: in vitro ADME, human
# testSettings: human, 10 μM
Numbered stars: 1 amine (or outer) side, 2 acyl side, 3 side chain; on linkers, the order of the positions; unused ones are H or OH. Bridge positions count the residues as written; N and C are the ends. Square brackets hold non-standard residues; d marks the D form. Peptide text beside a SMILES is read from it. * marks the point of attachment. X6 = O=C([C@@H]1CS(=O)(=O)CCN1[*:1])[*:2]; Morpholine(3S-CO) = O=C(O)[C@@H]1COCCN1; Phe(3-Me) = Cc1cccc(C[C@H](N)C(=O)O)c1; NH(4-Cl-2-F-phenyl) = Fc1cc(Cl)ccc1N*; Pro(4R-Me) = C[C@H]1CN[C@H](C(=O)O)C1; X1 = O=C([C@@H]1CSCCN1[*:1])[*:2]; Hyp = O=C(O)[C@@H]1C[C@@H](O)CN1; aThr = C[C@H](O)[C@H](N)C(=O)O; X3 = c1cc2c(cc1N*)OCCO2; CO = O=C([*:1])[*:2]
Quick reference: Human of the listed items.

molecule | Human
Cc1cccc(C[C@H](NC(=O)Nc2ccc3c(c2)OCCO3)C(=O)N[C@@H]2C(=O)N3C[C@H](O)C[C@H]3C(=O)N3CCOC[C@H]3C(=O)N[C@@H](C)C(=O)N3C[C@H](C)C[C@H]3C(=O)O[C@H]2C)c1 [Compound 27] ({X3-CO}-[Phe(3-Me)][aThr][Hyp][Morpholine(3S-CO)]A[Pro(4R-Me)]; ester 2-C) | >50 h
Cc1cccc(C[C@H](NC(=O)Nc2ccc(Cl)cc2F)C(=O)N[C@@H]2C(=O)N3CCC[C@H]3C(=O)N3CCS(=O)(=O)C[C@H]3C(=O)N[C@@H](C)C(=O)N3C[C@H](C)C[C@H]3C(=O)O[C@H]2C)c1 [Compound 40] ({NH(4-Cl-2-F-phenyl)-CO}-[Phe(3-Me)][aThr]P[X6]A[Pro(4R-Me)]; ester 2-C) | >50 h
Cc1cccc(C[C@H](NC(=O)Nc2ccc(Cl)cc2F)C(=O)N[C@@H]2C(=O)N3C[C@H](O)C[C@H]3C(=O)N3CCSC[C@H]3C(=O)N[C@@H](C)C(=O)N3C[C@H](C)C[C@H]3C(=O)O[C@H]2C)c1 [Compound 41] ({NH(4-Cl-2-F-phenyl)-CO}-[Phe(3-Me)][aThr][Hyp][X1]A[Pro(4R-Me)]; ester 2-C) | >50 h
